# Test system: mouse macrophages
# assay: stimulated release of TNF-α from mouse macrophages
# Format: cell-based
# measurement.conditions: Mus musculus, Macrophage; read-out: EC50, stimulated release of TNF-α from mouse macrophages
For each entry below, report its EC50 value.
Answer in nM, number only, no unit symbol.

Value (EC50, mouse macrophages) for record O=C(N[C@H]1C[C@@H]1c1ccccc1)[C@@H]1CN(C(=O)c2ccc(C(=O)N3C[C@@H](C(=O)N[C@H]4C[C@@H]4c4ccccc4)[C@H](C(=O)N[C@H]4C[C@@H]4c4ccccc4)C3)cc2)C[C@H]1C(=O)N[C@H]1C[C@@H]1c1ccccc1 (racemic) [Compound 12] = 100

Value (EC50, mouse macrophages) for record O=C(N[C@H]1C[C@@H]1c1ccccc1)[C@@H]1CN(C(=O)c2ccc(C(=O)N3C[C@@H](C(=O)N[C@H]4C[C@@H]4c4ccccc4)[C@H](C(=O)N[C@H]4C[C@@H]4c4ccccc4)C3)cc2)C[C@H]1C(=O)N[C@H]1C[C@@H]1c1ccccc1 [Compound 3] = 1

Ref: patent US11040959B2
